Biological target: Tyrosinase (Agaricus bisporus, UniProt O42713)
Sequence (O42713 whole entry): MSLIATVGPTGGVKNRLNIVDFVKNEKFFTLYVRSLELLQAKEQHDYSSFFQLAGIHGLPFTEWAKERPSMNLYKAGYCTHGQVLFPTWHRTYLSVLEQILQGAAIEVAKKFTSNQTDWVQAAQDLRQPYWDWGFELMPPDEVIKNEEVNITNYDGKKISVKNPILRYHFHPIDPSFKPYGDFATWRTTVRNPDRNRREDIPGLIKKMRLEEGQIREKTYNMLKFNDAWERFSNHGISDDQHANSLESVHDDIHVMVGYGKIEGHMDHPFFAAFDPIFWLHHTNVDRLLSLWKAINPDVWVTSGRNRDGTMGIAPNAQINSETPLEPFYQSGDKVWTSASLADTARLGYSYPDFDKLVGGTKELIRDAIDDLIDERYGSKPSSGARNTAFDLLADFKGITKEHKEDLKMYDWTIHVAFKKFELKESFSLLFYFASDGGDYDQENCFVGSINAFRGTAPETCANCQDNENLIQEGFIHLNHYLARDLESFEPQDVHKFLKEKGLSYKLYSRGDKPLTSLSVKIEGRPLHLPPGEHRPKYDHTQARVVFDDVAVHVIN
Test: Activation of mushroom tyrosinase using L-tyrosine as substrate preincubated for 5 mins followed by substrate addition measured after 30 mins by ELISA
Listed here: items and their measured pEC50.
The read-out pEC50 is expressed as -log10 of concentration in moles per litre.

// below: answered molecules
1) Cc1ccc(-c2cc(COc3ccc(C(=O)/C=C/c4ccccc4)cc3)on2)o1	4.45
2) O=C(/C=C/c1ccccc1)c1ccc(CCc2cn(Cc3ccc(F)cc3)nn2)cc1	4.84
3) O=C(/C=C/c1ccccc1)c1ccc(OCc2cc(-c3cccc(OC(F)(F)F)c3)no2)cc1	4.59
4) Cc1ccc(/C=C/C(=O)c2ccc3nc(NC(=O)c4ccccc4)sc3c2)cc1	4.77

Data request: Enter recorded pEC50 with Tyrosinase (Agaricus bisporus, UniProt O42713) for `COc1c2occc2cc2ccc(=O)oc12` here.
Data returned: 4.83

Data request: Enter recorded pEC50 with Tyrosinase (Agaricus bisporus, UniProt O42713) for `O=C(/C=C/c1ccccc1)c1ccc(CCc2cn(Cc3cccc(Cl)c3)nn2)cc1` here.
Data returned: 4.92

Data request: Enter recorded pEC50 with Tyrosinase (Agaricus bisporus, UniProt O42713) for `COc1cccc(Cn2cc(CCc3ccc(C(=O)/C=C/c4ccccc4)cc3)nn2)c1` here.
Data returned: 4.43

Data request: Enter recorded pEC50 with Tyrosinase (Agaricus bisporus, UniProt O42713) for `O=C(/C=C/c1ccccc1)c1ccc(OCc2cc(-c3cccc(F)c3)no2)cc1` here.
Data returned: 4.67

Data request: Enter recorded pEC50 with Tyrosinase (Agaricus bisporus, UniProt O42713) for `O=C(/C=C/c1ccccc1)c1ccc(OCc2cc(-c3cccs3)no2)cc1` here.
Data returned: 4.25

Data request: Enter recorded pEC50 with Tyrosinase (Agaricus bisporus, UniProt O42713) for `O=C(/C=C/c1ccccc1)c1ccc(OCc2cc(-c3ccc(F)cc3)no2)cc1` here.
Data returned: 5.19
